Reported log10 of GI50 values for the following substances.
# Test system: SF-268
# PROTOCOL SUMMARY: NCI tumour cell line growth inhibition, 48 h
Among all 57,000 sequences or so, about 3,200 (5.6%) were called active. A selection follows. Measured potencies and affinities stand elsewhere.
QUANTITY NAME: log10 of GI50 (log10 of the value in µM)

SUBSTANCE: [Bis(aminomethyl)pentamethylenesilane]dichloropaltinum(II), CHEMBL2146202
SYSTEM: SF-268
log10 of GI50: 0.54
//
SUBSTANCE: [Bis(aminomethyl)dimethylsilane]tetrachloroplatinum(IV), CHEMBL2146190
SYSTEM: SF-268
log10 of GI50: 0.44
//
SUBSTANCE: [Bis(aminomethyl)ethylmethylsilane]tetrachloroplatinum(IV), CHEMBL2146192
SYSTEM: SF-268
log10 of GI50: 0.39
//
SUBSTANCE: [Bis(aminomethyl)pentamethylenesilane]tetrachloropaltinum(IV), CHEMBL2146204
SYSTEM: SF-268
log10 of GI50: 0.56
//
SUBSTANCE: [Bis(aminomethyl)tetramethylenesilane]dichloropaltinum(II), CHEMBL2146205
SYSTEM: SF-268
log10 of GI50: 1.34
//
SUBSTANCE: mu-(1,7-nanodiamine-N,N')bis-(cis-aminedichloroplatimum (II)), CHEMBL2146215
SYSTEM: SF-268
log10 of GI50: 0.95
//
SUBSTANCE: CISPLATIN, CHEMBL11359
SYSTEM: SF-268
log10 of GI50: -0.13
